assay: yeast display, Sf9 membrane polyspecificity reagent, FACS + sequencing; frameworks hold sequencing errors

seq_string	polyreactivity (PSR sort gate)
QVQHVESRGGLVQAGGSLRLSCAASGSIFFAYAMGWDRQGPGKEREFVAAISASGGSTSYADSVKGRFTISRDNAKNTVYLQMNSLKPEDTAVYYCATEHSVTTYDYWGQGTQVTVSS	low polyreactivity
QVQLVESGGGLLQAGGSLRLSCAASGRIFAVYAMGWYRQAPGKEREFVAAISYSGGITYYADSVKGRFTISRDNAKNTVYLQMNSLKPEDSAVFYCNSYYYFWGQGTQVTVSS	low polyreactivity

----------
assay: yeast display, Sf9 membrane polyspecificity reagent, FACS + sequencing; frameworks hold sequencing errors
quantity_kind: polyreactivity (PSR sort gate)

seq_string	quantity_kind	assay_result
QVQLVESGGGLVQAGGTRRLSCAASGSIFYYYAMGWYRQAPGKERELVAAINRGVGSTFYADSVKGRFTISRDNAKNTVYLQMNSLKPEDTAVYYCAVELNQVTPGLGYITLDYWGQGTQVTVSS	polyreactivity (PSR sort gate)	low polyreactivity
QVQLVESGGGLVQAGGSLRLSCAASGRIFASYAMGWYRQAPGKERELVAAISKSGGRTYYADSVKGRFTISRDNAKNTVYLQMNSLKPEDTAVYYCAADGYRYYSWTRFSYYSGYDYWGQGTQVTVSS	polyreactivity (PSR sort gate)	high polyreactivity
QVQLVESGGCLVQAGGRLRLSCAASGIIFYLYAMAWYRQARGKVWELVATISRRGGSTYYADSVKGRFTISRDNAKNTVYLQMNSLKPDDTAVYYCATGHFSVGRSFSSGSYEYWGQGTQVTVSS	polyreactivity (PSR sort gate)	high polyreactivity
QVQLVEAGGGLVQAGGSLRLSCATSGGIFPPNAMGWYRQAPGKERELVASISSDGSTNYADSVKGRFTISRDNAKNTFYLQMISLKPEDTAVYFCAADSTTTWARLHVRRYYYWGQGTQVTVSS	polyreactivity (PSR sort gate)	low polyreactivity
QVQLVESGGGLVQAGGSLRLSCAASGYTFYSYAMGWYRQAPGKERELFAAITESGARTYYADSVKGRFTISRDNAKNTVYLQMNSLKPEVTAVYYCAADYAWPLRVTGDYWGQGTQVTVSS	polyreactivity (PSR sort gate)	low polyreactivity
QVQLVESGGGLVQAGGSLRLSCAASGSIFTKYAMGWYRQAPGKERELVAAISASGGSTYYADSVKGRFTISRDNAKNTVYLQMNSLKPEDTAVYYCAARYWVREDYWGQGTQVTVSS	polyreactivity (PSR sort gate)	high polyreactivity
QVQLVESGGGLVQAGGSLRLSCAASGNIFGVYAMGWYRQAPGKERELVAAIRYSTVSTYYADSVKGRFTISRDNAKNTVYLQMNSLKPEDTAVYYCAAQRRRYLPGHYYYWGQGTQVTVSS	polyreactivity (PSR sort gate)	high polyreactivity
QVQLVQSGGGLVQAGGSLRLSCADSGRTFTRYTMGWYRQAPGKERELVAAISSGGSTTYADSVKGRFTISRDNAKNTVYLQMNSLKPEDTAVYYCAAGLVYRGYRRDYWGQGTQVTVSS	polyreactivity (PSR sort gate)	low polyreactivity
QVQLQESGGGLVQAGGSLRMSCAASGSISHYIFMGWYRQAPGKEREFVAGIGYGGTTNYADSVKVRFTISRDNAKNTVYLQMNRLKPEDTAMYYCAAREATEFYLYYWGQGTQVTVSS	polyreactivity (PSR sort gate)	low polyreactivity
QVQLVESGGGLVQAGGSLRLSCAASGRTFSYYAMGWYRQAPGKERELVAGISWRGTSTYADSVKGRFTISRDNAKNTVYLQMNSLKPEDTAVYYWNAEVTGHYSYHKFDYWGQGTQVTVSS	polyreactivity (PSR sort gate)	low polyreactivity
QVQLVESGGGLVQAGGSLRLSCAASGFIFVHNAMGWYRQAPGKERELVATISRRGGSTYYADSVKGRFTISRDNAKNTVYLQMNILKPEDTAVYYCAARTYGYYLYDYWGQGTQVTVSS	polyreactivity (PSR sort gate)	high polyreactivity
QVQLLESGGGLVQAGGSLRLSCAASGRIFVVNAMGWYRQAPGKERELVATITRGASTYADSVKGRFTISRDNAKNTVYLQMNSLKPEDTAVYYCAAAKRPQVVRYDWTKLEYWGQGTQVTVSS	polyreactivity (PSR sort gate)	high polyreactivity
QVQLVESGGGLVQAGGSLRLSCAASGSIIGIYAMGWYRQAPGKERELVAAISWSGGSTYYADSVKGRFTISRDNAKNTVYLQMNSLKPEDTAVYYCNAYPAYLDDYWGQGTQVTVSS	polyreactivity (PSR sort gate)	low polyreactivity
QVQLVDSGGGLVQAGGRLRLSCDASGLTLYKNGLGWYRLEPVKERELFAVISRSGGRTYYADSVKGRFTISRDNAKNTVYLQFNSLKPEETAVYYCAARGIGPTKYDYLGQGTQVTVSS	polyreactivity (PSR sort gate)	high polyreactivity
QVQLVESGGGLVQAGGSLRLSCAASGFIFFRYAMGWYRQAPGKERELVAAISSSGGSTYYADSVKGRFTISRDNAKNTVYLQMNSLKPEDTAVYYCAAPRYRIFVGLGMDYWGQGTQVTVSS	polyreactivity (PSR sort gate)	high polyreactivity
QVQLVESGGGLVQAGGSLRLSCAASGRIFKLYAMGWYRQAPGKESELVAAITRRGGSTSYADSVKGRFTISRVNAKNTVYLQMNSLKPEDTSVYYCAASLSPWFTSYYLPYDLGYWGQGTQVTVSS	polyreactivity (PSR sort gate)	high polyreactivity
QVQLVESGGGLVQAGGSLRLSCAASGIIFKYYVMGWYRQAPGKERELVASIRWSGGITSYADSVKGRFTISRDNAKNTVYLQMNSLKPEDTAVYYCAVAHSRLRTAYTFSVQRYDYWGQGTQVTVSS	polyreactivity (PSR sort gate)	low polyreactivity
QVQLVESGGGLVQAGGSLRLSCAASGFIFYNYAMGWYRQAPGKVRELVAAISASGGRTYYADSVKGRFTISRDNAKNTVYLQMNRLKPEDTAVYYCNARVNYKGYDYWGQGTQVTVSS	polyreactivity (PSR sort gate)	high polyreactivity
QVQLVESGGGLVQAGGSLRLSCAASGRTFHGYAMGWSRQAPGKERELVARINWSDGRTYYADSVKGRFTISRDNAKNTVYLQMNSLKPADTGVYYCAARLYSSASGVRWIKFDYWGQGTQVTVSS	polyreactivity (PSR sort gate)	low polyreactivity
QVQLVESGGGLVQAGGSLRLSCAASVRISESNDMGWYRQAPGKERELVAAISSSGGSTYYADSVKGRFTISRENAKNTVYLQMNSLKPEDTAVYYCNAVYYRTVLKIGVYEYDFWGQGTQVTVSW	polyreactivity (PSR sort gate)	low polyreactivity
QVQLVESGGGLVQAGRSLRLSCAASGLISRRNAMGWYRQAPGKQRELVAAISTGSSTNYADSVKGRFTISRDNAKNTVYLQMNSLKPEDTAVYYCASTQYWWSTLGIRDDYWGQGTQVTVSS	polyreactivity (PSR sort gate)	low polyreactivity
